biological target: HIV-1 93IN905 Env (HIV-1 strain 93IN905); test: cell-based or functional assay
metric.name: IC50 neutralization, 1 hour virus/Ab incubation

[[record]]
binder = "1460_G14 (PGG14) (antibody, human IgG1, kappa, V domains shown) VH: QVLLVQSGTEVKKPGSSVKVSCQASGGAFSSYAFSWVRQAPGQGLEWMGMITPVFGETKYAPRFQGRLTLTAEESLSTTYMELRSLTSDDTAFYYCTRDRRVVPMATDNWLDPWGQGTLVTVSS VL: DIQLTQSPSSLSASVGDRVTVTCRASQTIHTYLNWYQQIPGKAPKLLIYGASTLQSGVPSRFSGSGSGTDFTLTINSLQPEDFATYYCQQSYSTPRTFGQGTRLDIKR"
recorded_result = "> 50 µg/mL"

